- ASSAY_TARGET: KRAS G12D/RAF1 (Homo sapiens, UniProt P01116, G12D)
- Construct: His6-MBP (N, cleaved yes); made in house; host or cells: E. coli
- Sequence (P01116 with tags, fused parts or gaps isoform P01116-2 G12D): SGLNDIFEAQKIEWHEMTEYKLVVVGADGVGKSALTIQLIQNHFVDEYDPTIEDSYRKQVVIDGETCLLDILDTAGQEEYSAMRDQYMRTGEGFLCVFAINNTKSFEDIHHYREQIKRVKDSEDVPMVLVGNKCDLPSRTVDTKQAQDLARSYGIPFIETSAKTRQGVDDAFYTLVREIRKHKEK
- RUN_DESCRIPTION: Protein-protein interaction (PPI) HTRF assay KRAS G12D/RAF1
- Assay type: binding
- EXPERIMENTAL_PARAMETERS: Table 4, listed as 74.1
READOUT: IC50

INSERT INTO measurements (compound, readout, val) VALUES
  ('CN(C)CC1(COc2nc(N3CC4CCC(C3)N4)c(C#N)c(N3CC4(CCc5sc(N)c(C#N)c54)C3)n2)CC1(F)F (stereo not shown) [Compound 74A]', 'IC50', '< 100 nM');

Data origin, for the record: patent US12145947B2
